All figures here come from ChEMBL document CHEMBL1201862.

# System: SNB-19
# procedureText: NCI tumour cell line growth inhibition, 48 h
Active and inactive are the calls of the source. Cut-off read from the data, not from the text of the source: active = GI50 up to about 1.1 µM and inactive = higher.
measurementName: GI50

{"columns": ["compound", "observed"],
 "data": [
  ["Oc1cc(-c2ccccn2)nc2cccc(F)c12", "> 100 µM (inactive)"],
  ["CO[C@@]12C[C@@H](C)C3=CCC(C)=C3CC1=C(C)C(=O)O2", "> 100 µM (inactive)"]
]}

Consider the additional compound presented here.
# input Entry O=C(CN(C(=O)OC12CC3CC(CC(C3)C1)C2)C(=O)OC12CC3CC(CC(C3)C1)C2)Oc1ccc([N+](=O)[O-])cc1 : reported GI50 = ?
# output > 100 µM (inactive)
